Molecular target: USP7 (Homo sapiens, UniProt Q93009)
Construct: USP7, construct USP7 (208-1102) 6*His, Viva Biotech; 6xHis (C); purchased Viva Biotech
Sequence (Q93009 208-1102): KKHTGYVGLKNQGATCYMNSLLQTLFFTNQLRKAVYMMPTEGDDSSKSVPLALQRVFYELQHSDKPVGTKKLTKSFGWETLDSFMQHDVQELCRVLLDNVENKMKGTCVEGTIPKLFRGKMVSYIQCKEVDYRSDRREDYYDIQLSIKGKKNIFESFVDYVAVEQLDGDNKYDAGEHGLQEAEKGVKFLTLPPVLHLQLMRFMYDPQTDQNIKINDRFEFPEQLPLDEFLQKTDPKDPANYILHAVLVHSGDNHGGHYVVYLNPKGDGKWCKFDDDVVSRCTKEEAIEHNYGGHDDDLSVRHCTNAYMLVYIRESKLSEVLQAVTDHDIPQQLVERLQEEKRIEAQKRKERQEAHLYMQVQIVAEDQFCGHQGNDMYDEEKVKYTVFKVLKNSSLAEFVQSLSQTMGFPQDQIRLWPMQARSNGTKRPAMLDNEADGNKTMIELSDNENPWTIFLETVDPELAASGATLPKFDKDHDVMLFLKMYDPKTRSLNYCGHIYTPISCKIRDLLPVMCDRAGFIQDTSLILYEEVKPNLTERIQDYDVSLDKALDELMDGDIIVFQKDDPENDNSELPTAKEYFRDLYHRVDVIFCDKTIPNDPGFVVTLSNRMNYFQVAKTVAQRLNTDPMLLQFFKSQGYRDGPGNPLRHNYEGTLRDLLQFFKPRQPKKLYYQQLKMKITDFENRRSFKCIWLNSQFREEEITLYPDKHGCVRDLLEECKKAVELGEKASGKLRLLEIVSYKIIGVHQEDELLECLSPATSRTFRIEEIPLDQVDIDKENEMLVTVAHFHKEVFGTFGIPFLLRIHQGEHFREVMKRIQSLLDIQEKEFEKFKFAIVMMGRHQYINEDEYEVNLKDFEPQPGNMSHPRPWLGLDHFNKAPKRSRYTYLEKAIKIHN
Assay: USP7 Assay A (Ubitquin-Rhodamine 110 Assay)
Format: biochemical
Details: USP7 assay A and B (table does not say which assay per compound); read-out: USP7_IC50
Method: Each assay was performed in a final volume of 15 μL in assay buffer containing 20 mM Tris-HCl (pH 8.0, (1M Tris-HCl, pH 8.0 solution; Corning 46-031-CM)), 1 mM GSH (L-Glutathione reduced; Sigma #G4251), 0.03% BGG ([…], Sigma, #G7516-25G), and 0.01% Triton X-100 (Sigma, #T9284-10L). […] Fluorescence was read on the Envision (Excitation at 485 nm and Emission at 535 nm; Perkin Elmer) or on the PheraSTAR (Excitation at 485 nm and Emission at 535 nm; BMG Labtech). […]
pIC50: −log10 of the molar value.
// values below are reported pIC50
endpoint-label: pIC50

CN(C)C(=O)N1CCC(O)(Cn2cnc3c(cnn3-c3ccc(N4CCC(F)(F)CC4)cc3)c2=O)CC1 [Compound I-1461]; 5.00 to 6.00
Cc1ccc(-n2ncc3c(=O)n(CC4(O)CCN(C(=O)C[C@@H](C(F)F)n5cccn5)CC4)cnc32)cc1 [Compound I-1061]; 5.00 to 6.00
O=C(c1ccc(Oc2ccccn2)cc1)N1CCC(O)(Cn2cnc3c(cnn3-c3ccc(F)cc3)c2=O)CC1 [Compound I-538]; 5.00 to 6.00
O=C(C[C@H](c1ccccc1)C(F)(F)F)N1CCC(O)(Cn2cnc3c(cnn3-c3ccccc3)c2=O)CC1 [Compound I-141]; 5.00 to 6.00
CC1(C)CC(NC(=O)N2CCC(O)(Cn3cnc4c(cnn4-c4ccc(F)cc4)c3=O)CC2)C1 [Compound I-482]; < 5.00
Cc1ccc(-n2ncc3c(=O)n(CC4(O)CCN(C(=O)C[C@@H](c5ccccc5)C(F)(F)F)CC4)cnc32)cc1 [Compound I-145]; > 6.70
Nc1ccc(Cl)cc1C(=O)N1CCC(O)(Cn2cnc3c(cnn3-c3ccccc3)c2=O)CC1 [Compound I-233]; 6.00 to 6.70

---

Molecular target: USP7 (Homo sapiens)
Construct: USP7, construct USP7 (208-1102) 6*His, Viva Biotech; 6xHis (C); purchased Viva Biotech
Assay: USP7 Assay A (Ubitquin-Rhodamine 110 Assay)
Type: biochemical
Details: USP7 assay A and B (table does not say which assay per compound); read-out: USP7_IC50
endpoint-label: IC50

Cc1oncc1S(=O)(=O)Nc1cccc(-n2ncc3c(=O)n(CC4(O)CCN(C(=O)C5CC5)CC4)cnc32)c1 [Compound I-1400]; 1000 to 10000 nM
CC(CC(=O)N1CCC(O)(Cn2cnc3c(cnn3-c3ccc(F)cc3)c2=O)CC1)N1CC2CCCC2C1 (stereo not shown) [Compound I-523]; > 10000 nM
NC(=O)c1ccc(C(=O)N2CCC(O)(Cn3cnc4c(cnn4-c4ccccc4)c3=O)CC2)cc1 [Compound I-179]; 200 to 1000 nM
O=C(C1CC1)N1CCC(O)(Cn2cnc3c(cnn3-c3cccc(NCc4ccccc4)c3)c2=O)CC1 [Compound I-1155]; 200 to 1000 nM

---

Target: USP7 (Homo sapiens)
Construct: USP7, construct USP7 (208-1102) 6*His, Viva Biotech; 6xHis (C); purchased Viva Biotech
Experiment: USP7 Assay A (Ubitquin-Rhodamine 110 Assay)
Format: biochemical
Conditions: USP7 activity in USP7 assay A and B (table does not say which assay per compound); read-out: USP7_IC50
pIC50: −log10 of the molar value.
endpoint-label: pIC50

O=C(c1ccc(F)cc1)N1CCC(O)(Cn2cnc3c(cnn3-c3ccc(N4CCCc5cnccc54)cc3)c2=O)CC1 [Compound I-1729]; 5.00 to 6.00
C[C@@H](CC(=O)N1CCC(O)(Cn2cnc3c(cnn3-c3ccc(N4CC[C@](C)(O)C4)cc3)c2=O)CC1)n1cccn1 [Compound I-837]; > 6.70
O=C(C[C@@H](C(F)F)n1ccc(F)n1)N1CCC(O)(Cn2cnc3c(cnn3-c3cccc(N4CC5CC5C4)c3)c2=O)CC1 (stereo partly drawn) [Compound I-790]; > 6.70
CC1(C(=O)N2CCC(O)(Cn3cnc4c(cnn4-c4ccc(N5CCC6(CC5)CC(F)(F)C6)cc4)c3=O)CC2)CCC1 [Compound I-1718]; > 6.70
CC1(COc2ccc(-n3ncc4c(=O)n(CC5(O)CCN(C(=O)c6ccc(F)cc6)CC5)cnc43)cc2)COC1 [Compound I-1756]; 6.00 to 6.70
Cc1ccc(-n2ncc3c(=O)n(CC4(O)CCN(C(=O)c5ccc(Oc6ccc(OCCO)cn6)cc5)CC4)cnc32)cc1 [Compound I-1160]; 6.00 to 6.70
